# Test Target: T1, Human Siglec-9 mutant M11 (human, UniProt Q9Y336 18-463)
# T1 construct: Expressed on HEK293T cells; also called Mutant 11
# T1 sequence (Q9Y336 other isoform, or with tags, fused parts or gaps mutant): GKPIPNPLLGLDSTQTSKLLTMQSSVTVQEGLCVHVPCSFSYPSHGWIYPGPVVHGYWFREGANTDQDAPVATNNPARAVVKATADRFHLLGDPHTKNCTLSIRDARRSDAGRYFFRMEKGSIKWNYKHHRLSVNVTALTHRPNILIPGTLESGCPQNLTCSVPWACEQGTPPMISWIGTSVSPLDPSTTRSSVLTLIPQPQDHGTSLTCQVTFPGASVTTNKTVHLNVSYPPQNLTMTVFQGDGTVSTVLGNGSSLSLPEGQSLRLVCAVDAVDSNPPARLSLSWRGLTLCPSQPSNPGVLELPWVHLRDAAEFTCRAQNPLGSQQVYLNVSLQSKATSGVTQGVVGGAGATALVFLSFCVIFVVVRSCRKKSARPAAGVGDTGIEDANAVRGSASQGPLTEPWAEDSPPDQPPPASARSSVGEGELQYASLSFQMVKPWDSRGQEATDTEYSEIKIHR
# Experiment Summary: flow cytometry, HEK293T transfectants
Property Label: binding result

Take a look at these entries with their results.
Binder	binding result
mAbA (antibody, human IgG1, V domains shown) VH: QVQLQQPGAELVKPGSPVKLSCKASYFTFTSYWMHWVRQRPGQGLEWIGEINPSNGHTNYNEKFESKATLTVDRSSSTAYMQLSSLTSEDSAVFYCANGVESYDFDDALDYWGQGTSVTVSS VL: DIQMTQTTSSLSASLGDRVTISCRASQDINNYLNWYQQKPDGTIKLLIYYTSRLHSGVPSRFSGSGSGTDYSLTINNLEQEDIATYFCQQGNTLPFTFGGGTKLEIK	binds
mAbD (antibody, human IgG1, V domains shown) VH: QIQLVQSGPELKKPGETVKISCKASGYTFTDYSMHWVKQAPGKGLKWMGWIITETGEPTYADDFRGRFAFSLETSANTAYLQINNLKNEDTATYFCARDFDGYWGQGTTLTVSS VL: DILMTQSPASLSASVGETVTITCRASENIYSYLAWYQQKRGKSPQFLVYNAKTLTEGVPSRFRGSGSGTQFSLKINSLQPEDFGTYYCQHHYGFPWTFGGGTKLEIK	binds
Fab.D (Fab of mAbD) (Fab, V domains shown) VH: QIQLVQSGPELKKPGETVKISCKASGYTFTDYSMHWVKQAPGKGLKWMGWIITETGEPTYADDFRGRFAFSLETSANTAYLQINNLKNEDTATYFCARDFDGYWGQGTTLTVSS VL: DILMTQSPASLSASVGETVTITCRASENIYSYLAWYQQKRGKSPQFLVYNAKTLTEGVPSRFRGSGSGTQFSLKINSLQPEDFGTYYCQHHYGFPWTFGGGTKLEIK	binds
Fab.C (Fab of mAbC) (Fab, V domains shown) VH: QIQLVQSGPELKKPGETVKISCKASGYTFTNYEMNWVKEAPGKGLKWMGWINTYTGESTYADDFKGRFAFSLETSASTVYLQINNLKDEDVATYFCVRDDYGRSYGFAYWGQGTLVTVSA VL: NIVLTQSPASLTVSLGQRANISCRASESVDSYGNSFMHWYQQKPGQPPKLLIYLASKLESGVPARFSGSGSRTDFTLTIDPVETDDAATYYCHQNNEDPPWTFGGGTKLEIK	binds

Batch: binding result for all items listed.
1. mAbC (antibody, human IgG1, V domains shown) VH: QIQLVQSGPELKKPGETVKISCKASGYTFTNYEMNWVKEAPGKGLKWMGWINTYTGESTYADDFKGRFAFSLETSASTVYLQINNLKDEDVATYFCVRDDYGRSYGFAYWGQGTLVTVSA VL: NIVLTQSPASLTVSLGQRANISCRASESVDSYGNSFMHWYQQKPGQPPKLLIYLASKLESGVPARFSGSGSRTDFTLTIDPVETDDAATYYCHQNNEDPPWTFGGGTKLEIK
2. mAbB (antibody, human IgG1, V domains shown) VH: QVQLQQPGAELVKPGASVKLSCKASVYTFTSYWMHWVKQRPGQGLEWIGEINPSNGHTNYNEKFKTKAKLTVDKSSSTAYMQLSSLTSEDSAVYFCANGVETYDFDDAMDYWGQGTSVTVSS VL: DIQMTQTTSSLSASLGDRVTISCRASQDINNYLNWYQQKPDGTVKLLIYFTSRLHSGVPSRFSGSGSGTDYSLTISNLEQEDIATYFCQQGDTFPFTFGGGTKLEIK

## Result
1. binds
2. binds
